# BT-474 proliferation IC50 per record follows
molecular target: human HER3 endogenously expressed on human cancer cells (SK-Br-3, BT-474, MCF7) (human, UniProt P21860 20-1342); test: cell-based or functional assay
Respond numerically; units are nM and should not be typed.

INSERT INTO assay_data (binder, unitdescriptor, numericvalue) VALUES
  ('MOR13655 (antibody, human IgG1, lambda, V domains shown, Tested as IgG) VH: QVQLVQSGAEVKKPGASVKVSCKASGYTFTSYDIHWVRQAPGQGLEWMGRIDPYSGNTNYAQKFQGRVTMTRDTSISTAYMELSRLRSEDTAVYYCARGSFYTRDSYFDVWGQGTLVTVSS VL: DIALTQPASVSGSPGQSITISCTGTSSDVGTYNQVSWYQQHPGKAPKLMIYGVSKRPSGVSNRFSGSKSGNTASLTISGLQAEDEADYYCSSATQKPDVTVFGGGTKLTVLG', 'nM', 0.141);

Using the record for MOR13658 (antibody, human IgG1, lambda, V domains shown, Tested as IgG) VH: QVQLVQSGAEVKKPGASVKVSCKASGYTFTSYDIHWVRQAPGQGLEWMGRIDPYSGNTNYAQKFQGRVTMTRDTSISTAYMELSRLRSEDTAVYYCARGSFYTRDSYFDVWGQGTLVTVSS VL: DIALTQPASVSGSPGQSITISCTGTSSDVGTYNQVSWYQQHPGKAPKLMIYGVSKRPSGVSNRFSGSKSGNTASLTISGLQAEDEADYYCASADHSYHTVFGGGTKLTVLG , report its BT-474 proliferation IC50. 0.423

Using the record for MOR12606 (antibody, human IgG1, kappa, V domains shown, Tested as IgG) VH: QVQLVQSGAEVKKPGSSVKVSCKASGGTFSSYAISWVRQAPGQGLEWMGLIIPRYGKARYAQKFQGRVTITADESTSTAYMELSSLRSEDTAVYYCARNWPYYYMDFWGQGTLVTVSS VL: DIVLTQSPATLSLSPGERATLSCRASQNIVFNLAWYQQKPGQAPRLLIYDASNRATGVPARFSGSGSGTDFTLTISSLEPEDFAVYYCQQTKSKPSPTFGQGTKVEIKR , report its BT-474 proliferation IC50. 0.127
